ASSAY PROTOCOL: physchem
DETAILS: formamide, organic solvent or mixture
RECORDED ENDPOINT: solubility (mg/mL)

>>> reported_value("Nc1nc(=O)[nH]cc1F")
13.7

====

# half-life listing for each entry below
ASSAY PROTOCOL: half-lives of hydrolysis of cytosine and 5-fluorocytosine derivatives in phosphate buffer
DETAILS: phosphate buffer, pH 7.1, Half-life of hydrolysis, 5-FC derivatives
RECORDED ENDPOINT: half-life

>>> reported_value("CCN(CC)CNc1nc(=O)n(CN(CC)CC)cc1F [XIV, hydrate]")
"6 s"
>>> reported_value("CN(C)CNc1nc(=O)n(CN(C)C)cc1F [XIII, hydrate]")
"44.4 s"
>>> reported_value("CN1CCN(CNc2nc(=O)n(CN3CCN(C)CC3)cc2F)CC1 [XVII, hydrate]")
"1580 s"
>>> reported_value("O=c1nc(NCN2CCCCC2)c(F)cn1CN1CCCCC1 [XIIa]")
"53.4 s"
>>> reported_value("O=c1nc(NCN2CCCC2)c(F)cn1CN1CCCC1 [XV, hydrate]")
"63 s"
>>> reported_value("O=c1nc(NCN2CCOCC2)c(F)cn1CN1CCOCC1 [XVI, hydrate]")
"546 s"
